Test system: Escherichia coli
Settings: Concentration 32 ug.mL-1;; ASSAY_TEST Inhibition of Bacterial Growth; detection method Absorption (OD600); MEDIA CAMHB; plate type 384well; NBS; CORNING #3640; time 18 hr
Description: Antibacterial activity against Escherichia coli ATCC 25922 (CO-ADD:GN_001); MIC in CAMBH media using NBS plates, by OD(600)
Measured potencies and affinities stand elsewhere.
A collection of compounds and their measured Inhibition
Provide the reading as a plain figure in %.

See these solved cases before continuing.
{"compound": "COC(=O)c1ccc(NC(=O)CSc2nnc3c4cc(-c5ccc(OC)cc5)nn4ccn23)cc1", "reading unit": "%", "Inhibition": 0.03}
{"compound": "Cc1ccc(NC(=O)CSc2nc3ccccc3n3c(C)nnc23)cc1C", "reading unit": "%", "Inhibition": -12.4}
{"compound": "O=C(Cn1nc2c3cc(-c4ccc(Cl)cc4)nn3ccn2c1=O)Nc1ccc(F)cc1", "reading unit": "%", "Inhibition": 4.85}
{"compound": "CCCCN(C)c1ccc2nnc(CCc3nc(-c4cc(OC)cc(OC)c4)no3)n2n1", "reading unit": "%", "Inhibition": -4.97}

# context switch: different compound, same Inhibition
Given the entry COc1cc(NC(=O)C(C)Sc2nnc3c(=O)n(-c4ccc(F)cc4)ccn23)cc(OC)c1 (stereo not drawn) , report its measured Inhibition.
-6.93
